# SYSTEM NAME: SFRP-1 (Homo sapiens)
# Sequence (Q8N474 32-314): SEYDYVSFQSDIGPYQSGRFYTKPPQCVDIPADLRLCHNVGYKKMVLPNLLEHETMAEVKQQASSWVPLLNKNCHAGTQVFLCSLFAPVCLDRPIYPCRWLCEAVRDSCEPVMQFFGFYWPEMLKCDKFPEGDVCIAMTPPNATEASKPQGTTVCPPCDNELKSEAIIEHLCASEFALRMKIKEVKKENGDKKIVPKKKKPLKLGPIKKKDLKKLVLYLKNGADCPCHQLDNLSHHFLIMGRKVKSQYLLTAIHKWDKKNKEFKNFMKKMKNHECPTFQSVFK
# METHOD SUMMARY: Cell-based assay for in vitro measurement of SFRP-1/SARP2 antagonist activity (U2OS cells co-transfected with 16x TCF-tk-Luciferase reporter, Wnt and hSFRP-1);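 further: U2OS cells co-transfected with a TCF-tk luciferase reporter, a Wnt vector, hSFRP-1 or empty vector and CMV-βgal, luciferase luminescence read in cell lysates alongside βgal activity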
# CONDITION: U2OS, read-out: Fold Induction without SFRP-1, Conc 15 μM; single dose; luciferase reporter; cells without SFRP-1 (specificity control)
OBSERVED PROPERTY: fold induction at 15 µM

| COMPOUND | SYSTEM NAME | fold induction at 15 µM |
| --- | --- | --- |
| Cc1cccc(Cl)c1S(=O)(=O)c1ccc(C(C)C)c(S(=O)(=O)NCCc2ccccn2)c1 | SFRP-1 (Homo sapiens) | 1.2 |
| CCCc1ccc(S(=O)(=O)c2ccccc2)cc1S(=O)(=O)NCCc1ccccc1 | SFRP-1 (Homo sapiens) | 1.1 |
| Cc1ccc(S(=O)(=O)c2ccccc2)cc1S(=O)(=O)NC1CCN(C(=O)NC2CCCCC2)CC1 | SFRP-1 (Homo sapiens) | 1 |
| CC(C)c1ccc([S@@+]([O-])c2ccccc2)cc1S(=O)(=O)NCCc1ccccn1 | SFRP-1 (Homo sapiens) | 1.3 |
| CC(C)c1ccc(S(=O)(=O)c2cccc(C(F)(F)F)c2)cc1S(=O)(=O)NCCc1ccccn1 | SFRP-1 (Homo sapiens) | 0.9 |
| CCN(CC)C1CCN(S(=O)(=O)c2cc(S(=O)(=O)c3ccccc3)ccc2Cl)C1 (stereo not shown) | SFRP-1 (Homo sapiens) | 1.1 |
| CCCc1ccc(S(=O)(=O)c2ccccc2)cc1S(=O)(=O)NC1CCN(C(=O)OC(C)(C)C)CC1 | SFRP-1 (Homo sapiens) | 1.1 |
| O=S(=O)(c1ccccc1)c1ccc(Cl)c(S(=O)(=O)N2CCN(CCN3CCOCC3)CC2)c1 | SFRP-1 (Homo sapiens) | 1.1 |
| COC(=O)C(C)(C)NS(=O)(=O)c1cc(S(=O)(=O)c2ccccc2)ccc1Cl | SFRP-1 (Homo sapiens) | 1 |
| Cc1ccc(S(=O)(=O)c2ccccc2)cc1S(=O)(=O)NC1CCN(C(=O)c2cccnc2)CC1 | SFRP-1 (Homo sapiens) | 1 |
| CC(C)(C)OC(=O)NC1CCN(S(=O)(=O)c2cc(S(=O)(=O)c3ccccc3)ccc2Cl)CC1 | SFRP-1 (Homo sapiens) | 1 |
| CC(C)c1ccc(S(=O)(=O)c2cccc(OC(F)(F)F)c2)cc1S(=O)(=O)NCCc1ccccn1 | SFRP-1 (Homo sapiens) | 1 |
| Cc1ccc(S(=O)(=O)c2ccc(F)cc2)cc1S(=O)(=O)NC1CCN(Cc2ccccc2)CC1 | SFRP-1 (Homo sapiens) | 1.2 |
| Cc1ccc(S(=O)(=O)c2ccccc2)cc1S(=O)(=O)NC1CCN(C(=O)NC(C)(C)C)CC1 | SFRP-1 (Homo sapiens) | 1 |
| CC(C)c1ccc([S@+]([O-])c2ccccc2)cc1S(=O)(=O)NCCc1ccccn1 | SFRP-1 (Homo sapiens) | 1 |
| CCCc1ccc(S(=O)(=O)c2ccc(F)cc2)cc1S(=O)(=O)NCCCn1ccnc1 | SFRP-1 (Homo sapiens) | 1.2 |
| O=S(=O)(NC1CCNCC1)c1cc(S(=O)(=O)c2ccccc2)ccc1Cl | SFRP-1 (Homo sapiens) | 1.2 |
| CCCc1ccc(S(=O)(=O)c2ccc(F)cc2)cc1S(N)(=O)=O | SFRP-1 (Homo sapiens) | 1.3 |
| CCCc1ccc(S(=O)(=O)c2ccccc2)cc1S(=O)(=O)NCCc1ccccn1 | SFRP-1 (Homo sapiens) | 1.2 |
